The measurements presented in this section are drawn from PubChem BioAssay AID1159580.

Measured normalized growth by item
assay: chemical genetic growth profiling, strain panel (AID 1159580);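 note: tested at 20 µM; growth read once vehicle control cultures reached saturation at 30 °C; 1 = growth at the plate median or of vehicle wells; lower values mean less growth of the strain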; conditions: S. cerevisiae deletion strains, growth OD, locus YBR171W, strain sec66, hits give low values
The campaign covered roughly 5,500 compounds. About 2,000 (36%) were called active. Another 18% or so got no clear call; they are omitted. This is one part of the list.
Just the number, please, no unit attached.

Known normalized growth results, listed for orientation:
compound=COc1ccc(-c2coc3cc(O)ccc3c2=O)c(OC)c1O experimentalvalue=0.983
compound="CC1CCc2cc(F)cc3c(=O)c(C(=O)O)cn1c23 (stereo not given)" experimentalvalue=0.979
compound="CCn1cc(C(=O)O)c(=O)c2cc(F)c(N3CCNC(C)C3)c(F)c21 (stereo not given)" experimentalvalue=0.975
compound=COc1ccc(-c2coc3cc(O)ccc3c2=O)c(O)c1O experimentalvalue=0.984

Query :: Using the record for O=C(Oc1cc(OC(=O)c2ccccc2)c2c(c1)O[C@H](c1ccc(OC(=O)c3ccccc3)c(OC(=O)c3ccccc3)c1)[C@@H](OC(=O)c1ccccc1)C2)c1ccccc1 , report its normalized growth.
Result :: 0.997

Query :: Could you share which normalized growth value was measured for COc1ccc(-c2coc3cc(O)ccc3c2=O)c(OC)c1 ?
Result :: 1.01

Query :: Suppose we examine the compound CC1(O)CC2C(CC1O)C2(C)C (stereo not given) ; what normalized growth value has been reported?
Result :: 0.998

Query :: Give the measured normalized growth of C[C@H]1COc2c(N3CCN(C)CC3)c(F)cc3c(=O)c(C(=O)O)cn1c23 .
Result :: 1.04

Query :: Using the record for O=C(Oc1cc(O)cc2c1C[C@@H](OC(=O)c1cc(O)c(O)c(O)c1)[C@@H](c1cc(O)c(O)c(O)c1)O2)c1cc(O)c(O)c(O)c1 , report its normalized growth.
Result :: 0.994

Query :: Request the reported normalized growth associated with O=c1c(-c2ccc(O)cc2)coc2cc(O)ccc12
Result :: 0.969

---

assay: chemical genetic growth profiling, strain panel (AID 1159580);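 note: tested at 20 µM; growth read once vehicle control cultures reached saturation at 30 °C; 1 = growth at the plate median or of vehicle wells; lower values mean less growth of the strain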; details: S. cerevisiae deletion strains, growth OD, locus YPR025C, strain CCL1, hits give low values
Among all 5,500 compounds or so, about 2,000 (36%) were called active. Not shown: some 18% with an inconclusive outcome. Some of the results follow.
Each entry below carries its recorded normalized growth.
Could you keep your reply to the number by itself?

// known answers, use as guide
compound=N#C/C(=N/Nc1ccc(F)cc1)S(=O)(=O)c1ccc(Cl)cc1 endpointname="normalized growth" experimentalvalue=0.974
compound=N#C/C(=N/Nc1ccccc1)C(=O)c1ccccc1OC(F)(F)F endpointname="normalized growth" experimentalvalue=0.919
compound=CCOC(=O)c1ccc2nc(N=CNO)sc2c1 endpointname="normalized growth" experimentalvalue=0.95

Query :: Fill in: normalized growth of Oc1c(Cl)cc(Cl)cc1C=Nc1nc(-c2ccc3ccccc3c2)cs1 is ___
Result :: 0.962

Query :: Look up normalized growth for this compound: COc1cc(Cl)ccc1N/N=C(/C#N)C(N)=O
Result :: 0.107

Query :: Can you share its normalized growth? I mean this compound: Cc1nn(C)c(C(=O)Sc2ccc(OC(F)(F)F)cc2)c1[N+](=O)[O-]
Result :: 0.981

Query :: Tell me the measured normalized growth of CCCN(CCC)C(=S)NC(=O)c1cccc([N+](=O)[O-])c1 , please.
Result :: 0.973

Query :: // query normalized growth value for entry CCOC(=O)C1C(c2c(F)cccc2Cl)C(C(=O)OCC)C(O)(C(F)(F)F)NC1(O)C(F)(F)F (stereo unspecified)
Result :: 0.986

Query :: Which normalized growth is reported for this compound? CC(C)(C)c1ccc(N/N=C(\C#N)C(N)=O)cc1
Result :: 0.112

Query :: Any idea what its normalized growth is? The compound is N/C(Cn1ccc(C(F)(F)F)n1)=N/OS(=O)(=O)c1cccc(Cl)c1Cl
Result :: 0.978

Query :: Requested field: normalized growth. Item: N#C/C(=N/Nc1ccc(F)cc1)C(=O)c1ccccc1
Result :: 0.863
